I'd be grateful if you could share measured pKd for these entries.
# system-tested: T1, recombinant human FGF23 (R179Q) (human, UniProt Q9GZV9 25-251)
# T1 construct: also called rhFGF23(R179Q); hFGF23(R179Q)
# T1 sequence (looked up): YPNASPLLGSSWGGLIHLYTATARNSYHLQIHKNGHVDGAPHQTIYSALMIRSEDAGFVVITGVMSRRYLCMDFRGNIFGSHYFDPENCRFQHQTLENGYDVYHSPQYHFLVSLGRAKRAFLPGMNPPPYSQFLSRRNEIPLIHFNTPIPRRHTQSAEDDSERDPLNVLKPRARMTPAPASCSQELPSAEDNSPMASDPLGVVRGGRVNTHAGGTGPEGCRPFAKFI
# assay-details: SPR, antibody captured on hIgG chip, rhFGF23(R179Q) analyte
Worth noting: pKd values are minus log10 of concentrations stated in mol/L.

Inquiry: Can you look up the measured pKd of UGX127 (antibody, human IgG1, kappa, V domains shown, also called UGX017; LC:S52E) VH: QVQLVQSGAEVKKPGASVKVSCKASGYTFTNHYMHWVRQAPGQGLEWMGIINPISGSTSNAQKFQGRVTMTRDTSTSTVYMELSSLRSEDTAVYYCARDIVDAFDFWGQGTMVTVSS VL: AIQLTQSPSSLSASVGDRVTITCRASQGISSALVWYQQKPGKAPKLLIYDAESLESGVPSRFSGSGSGTDFTLTISSLQPEDFATYYCQQFNDYFTFGPGTKVDIKR for me?
Reply text: 10.75

Inquiry: What value of pKd has been reported for the following binder? UGX152 (antibody, human IgG1, kappa, V domains shown, also called HC:N31Q) VH: QVQLVQSGAEVKKPGASVKVSCKASGYTFTQHYMHWVRQAPGQGLEWMGIINPISGSTSNAQKFQGRVTMTRDTSTSTVYMELSSLRSEDTAVYYCARDIVDAFDFWGQGTMVTVSS VL: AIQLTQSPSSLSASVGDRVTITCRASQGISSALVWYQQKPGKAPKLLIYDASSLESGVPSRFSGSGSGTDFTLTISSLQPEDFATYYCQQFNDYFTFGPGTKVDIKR
Reply text: 10.38

Origin of values: patent US20260250371A1
